Listed here are compounds together with their documented TGI PANC-1.
System: PANC-1
test method notes: SRB colorimetric assay of cell growth and viability, PANC-1
Format: cell-based, human
conditions used: 48 hours exposure
Where a SMILES comes first, the peptide text is derived from it. Bridges are numbered along the chain shown (N, C = ends). [ ]: non-standard residue; d: D form. The star is where a group is joined. d(aIle) = CC[C@H](C)[C@@H](N)C(=O)O; d(aThr) = C[C@@H](O)[C@@H](N)C(=O)O; Hexanoyl(5-Me) = CC(C)CCCC(=O)*; dCha = N[C@H](CC1CCCCC1)C(=O)O; Orn = NCCC[C@H](N)C(=O)O; Dhb = C/C=C(\N)C(=O)O
Supply the numeric figure in Molar, leaving out any unit text.

Consider the reported TGI PANC-1 for these compounds:
INSERT INTO results (compound, tested_target, unit_info, quantitative_result) VALUES
  ('C/C=C1\NC(=O)[C@H](Cc2ccccc2)NC(=O)[C@@H](C(C)C)NC(=O)[C@@H]([C@@H](C)CC)NC(=O)[C@H](NC(=O)[C@H](NC(=O)[C@H](CCCN)NC(=O)[C@H]2CCCN2C(=O)[C@H](NC(=O)[C@@H](NC(=O)[C@@H](NC(=O)[C@@H](CC2CCCCC2)NC(=O)CCCC(C)C)[C@@H](C)O)C(C)C)C(C)C)[C@@H](C)CC)[C@@H](C)OC(=O)[C@H](C(C)C)NC1=O [Compound 8, [D-Cha^13]-KF]', 'PANC-1', 'Molar', '6.53E−06'),
  ('C/C=C1\NC(=O)[C@H](Cc2ccccc2)NC(=O)[C@@H](C(C)C)NC(=O)[C@@H]([C@@H](C)CC)NC(=O)[C@H](NC(=O)[C@H](NC(=O)[C@H](CCCCN)NC(=O)[C@H]2CCCN2C(=O)[C@H](NC(=O)[C@@H](NC(=O)[C@@H](NC(=O)[C@H](NC(=O)CCCC(C)C)C(C)C)[C@@H](C)O)C(C)C)C(C)C)[C@@H](C)CC)[C@@H](C)OC(=O)[C@H](C(C)C)NC1=O [Compound 5, [Lys^8]-KF]', 'PANC-1', 'Molar', '2.37E−06'),
  ('C/C=C1\NC(=O)[C@H](Cc2ccccc2)NC(=O)[C@@H](C(C)C)NC(=O)[C@@H]([C@@H](C)CC)NC(=O)[C@H](NC(=O)[C@H](NC(=O)[C@H](CCCN)NC(=O)[C@H]2CCCN2C(=O)[C@H](NC(=O)[C@H](CCCN)NC(=O)[C@@H](NC(=O)[C@H](NC(=O)CCCC(C)C)C(C)C)[C@@H](C)O)C(C)C)[C@@H](C)CC)[C@@H](C)OC(=O)[C@H](C(C)C)NC1=O [Compound 49, [Orn^11]-KF] ({Hexanoyl(5-Me)}-[dV]T[Orn][dV][dP][Orn][d(aIle)][d(aThr)][d(aIle)][dV]F[Dhb]V; ester 8-C)', 'PANC-1', 'Molar', '3.09E−06'),
  ('C/C=C1\NC(=O)[C@H](Cc2ccccc2)NC(=O)[C@@H](C(C)C)NC(=O)[C@@H]([C@@H](C)CC)NC(=O)[C@H](NC(=O)[C@H](NC(=O)[C@H](CCCN)NC(=O)[C@H]2CCCN2C(=O)[C@H](NC(=O)[C@@H](NC(=O)[C@@H](NC(=O)[C@@H](Cc2ccccc2)NC(=O)CCCC(C)C)[C@@H](C)O)C(C)C)C(C)C)[C@@H](C)CC)[C@@H](C)OC(=O)[C@H](C(C)C)NC1=O [Compound 36, [D-Phe^13]-KF]', 'PANC-1', 'Molar', '2.73E−08'),
  ('C/C=C1\NC(=O)[C@H](Cc2ccccc2)NC(=O)[C@@H](C(C)C)NC(=O)[C@@H]([C@@H](C)CC)NC(=O)[C@H](NC(=O)[C@H](NC(=O)[C@H](CCCN)NC(=O)[C@H]2CCCN2C(=O)[C@H](NC(=O)[C@@H](NC(=O)[C@@H](NC(=O)[C@H](NC(=O)c2ccccc2)C(C)C)[C@@H](C)O)C(C)C)C(C)C)[C@@H](C)CC)[C@@H](C)OC(=O)[C@H](C(C)C)NC1=O [Compound 20, [Bza^14]-KF]', 'PANC-1', 'Molar', '6.80E−06');

// field: TGI PANC-1; key: C/C=C1\NC(=O)[C@H](Cc2ccccc2)NC(=O)[C@@H](CC2CCCCC2)NC(=O)[C@@H](CC2CCCCC2)NC(=O)[C@H](NC(=O)[C@@H](CC2CCCCC2)NC(=O)[C@H](CCCN)NC(=O)[C@H]2CCCN2C(=O)[C@H](NC(=O)[C@@H](NC(=O)[C@@H](NC(=O)[C@H](NC(=O)CCCC(C)C)C(C)C)[C@@H](C)O)C(C)C)C(C)C)[C@@H](C)OC(=O)[C@H](C(C)C)NC1=O [Compound 11, [D-Cha^4, D-Cha^5, D-Cha^7]-KF] ({Hexanoyl(5-Me)}-[dV]TV[dV][dP][Orn][dCha][d(aThr)][dCha][dCha]F[Dhb]V; ester 8-C) ; value = 2.74E−06

Sample C/C=C1\NC(=O)[C@H](Cc2ccccc2)NC(=O)[C@@H](C(C)C)NC(=O)[C@@H]([C@@H](C)CC)NC(=O)[C@H](NC(=O)[C@H](NC(=O)[C@H](CCCN)NC(=O)[C@H]2CCCN2C(=O)[C@H](NC(=O)[C@H](CC(C)C)NC(=O)[C@@H](NC(=O)[C@H](NC(=O)CCCC(C)C)C(C)C)[C@@H](C)O)C(C)C)[C@@H](C)CC)[C@@H](C)OC(=O)[C@H](C(C)C)NC1=O [Compound 45, [Leu^11]-KF] ({Hexanoyl(5-Me)}-[dV]TL[dV][dP][Orn][d(aIle)][d(aThr)][d(aIle)][dV]F[Dhb]V; ester 8-C) ; TGI PANC-1 observed: 6.70E−06

So, C/C=C1\NC(=O)[C@H](Cc2ccccc2)NC(=O)[C@@H](C(C)C)NC(=O)[C@@H]([C@@H](C)CC)NC(=O)[C@H](NC(=O)[C@H](NC(=O)[C@H](CCCN)NC(=O)[C@H]2CCCN2C(=O)[C@H](NC(=O)[C@@H](NC(=O)[C@@H](NC(=O)[C@H](NC(=O)CCCNC(=N)N)C(C)C)[C@@H](C)O)C(C)C)C(C)C)[C@@H](C)CC)[C@@H](C)OC(=O)[C@H](C(C)C)NC1=O [Compound 29, [4-GuBut^14]-KF] ? Its TGI PANC-1 was 6.70E−06

Entry C/C=C1\NC(=O)[C@H](Cc2ccccc2)NC(=O)[C@@H](C(C)C)NC(=O)[C@@H](C(C)CC)NC(=O)[C@H](NC(=O)[C@H](NC(=O)[C@H](CCCN)NC(=O)[C@H]2CCCN2C(=O)[C@H](NC(=O)[C@@H](NC(=O)[C@@H](NC(=O)[C@H](NC(=O)CCC(C)CC)C(C)C)C(C)O)C(C)C)C(C)C)C(C)CC)C(C)OC(=O)[C@H](C(C)C)NC1=O (stereo partly drawn) ; TGI PANC-1 = 3.66E−06
